Here the recorded INHIBITION is given for each entry.
- Tested on: Plasmodium berghei
- PROTOCOL_SUMMARY: Screen against P. berghei liver stage (PbLuc), transformed with Luciferase, at 2uM
- Type: functional, HepG2
- STATED_CONDITIONS: tested at 2 uM
In all, about 68,000 compounds went through this assay and about 2,700 (4%) showed an effect of 50% or more. Only a selection was taken, and strong results are over-represented in it overall.
Kindly answer with a numeric value in %, unit omitted.

INSERT INTO results (molecule, observed_result) VALUES
  ('N#Cc1ccccc1CN1C[C@H]2CC[C@@H](C1)N(Cc1cscn1)C2=O', -66.52),
  ('CCCc1nnc(NCc2ccc(OC)c(C#N)c2)o1', 48.21),
  ('Fc1cccnc1Oc1cc(F)c(CN2CCCC2)c(Cl)c1', -42.73),
  ('Cc1noc(C)c1-c1cncc(CC2CCN(C(=O)c3cc[nH]n3)C2)n1 (stereo unspecified)', 61.16),
  ('Cc1ccccc1CS(=O)(=O)CC(=O)N(C)Cc1ccccc1', 34.25);

Exercise: Please report INHIBITION with Plasmodium berghei for item COc1ccc(C)cc1CN(Cc1ncc(C)o1)C1CCN(C)C1 (stereo unspecified) .
Solution: -5.79

Exercise: Recall the reported INHIBITION of O=C(c1cccc(OC2CCCC2)c1)N1CCCC(n2cncn2)C1 (stereo unspecified) on Plasmodium berghei and write it down.
Solution: 27.55

Exercise: Fill in: INHIBITION on Plasmodium berghei, entry Cc1cnc(CN(Cc2ccc(Cl)s2)C2CCN(C)C2)o1 (stereo unspecified)
Solution: 14.83

Exercise: Name the value of INHIBITION reported for Cc1nnc2n1CCN(C(C(=O)N1CCCCC1)c1ccccc1)C2 (stereo unspecified) when tested on Plasmodium berghei.
Solution: -40.65

Exercise: Send back Plasmodium berghei INHIBITION of CCN(CC)C(=O)C(c1ccccc1)N1CCn2c(C)nnc2C1 (stereo unspecified) only.
Solution: 63.95

Exercise: Give measured INHIBITION for CN(C(=O)c1ccco1)C1CCC(NC(=O)OC(C)(C)C)CC1 (stereo unspecified) (Plasmodium berghei).
Solution: 38.67

---

- Test system: Plasmodium berghei
- PROTOCOL_SUMMARY: Screen against P. berghei liver stage (PbLuc), transformed with Luciferase, at 2uM
- Type: functional, HepG2
- STATED_CONDITIONS: tested at 2 uM
Hit rate of the full screen: of about 68,000 compounds, about 2,700 (4%) showed an effect of 50% or more. This excerpt belongs to a sample that is enriched for strong results.
Each entry gets 0 if its INHIBITION stays under 30%, and 1 if its INHIBITION is 30% or above.

Before answering, review these 2 worked examples.
INSERT INTO results (compound, label_class) VALUES
  ('Cc1cccc(S(=O)(=O)N2CSCC2C(=O)NCC2CC2)c1 (stereo not drawn)', 0),
  ('O=C1CC2(CCN(c3nncs3)C2)CN1c1ccccc1 (stereo not drawn)', 0);

Exercise: Test whether the compound "Cc1ccc(S(=O)(=O)N2CCC(Oc3cccnn3)CC2)c(C)c1" records INHIBITION of 30% or higher.
Solution: 1

Exercise: Form field: INHIBITION at least 30%? Entry: "COC(=O)c1sccc1S(=O)(=O)N1CCC(Oc2cccnn2)CC1"
Solution: 0

Exercise: Given O=C1CC(c2ccccc2)C2(CCN(C(=O)c3cnccn3)CC2)N1 (stereo not drawn) , state whether its INHIBITION is at least 30%.
Solution: 0

---

- Test system: Plasmodium berghei
- PROTOCOL_SUMMARY: Screen against P. berghei liver stage (PbLuc), transformed with Luciferase, at 2uM
- Type: functional, HepG2
- STATED_CONDITIONS: tested at 2 uM
Out of some 68,000 compounds screened, about 2,700 (4%) showed an effect of 50% or more. Only a selection was taken, and strong results are over-represented in it overall.
INHIBITION reference
Write the answer as a number in %, unit excluded.

Field: example entries. Status: answers known.
INSERT INTO assay_data (molecule, value_type, observed_result) VALUES
  ('COc1ccc(CN2CCN(Cc3nccn3C)C(C)C2)cc1F (stereo not drawn)', 'INHIBITION', -13.34),
  ('CN1CCN(C(=O)C2CCN(c3cccnn3)CC2)CC1', 'INHIBITION', 54.49),
  ('CN(C(=O)c1ccncc1)c1nnc(C2CCOC2)s1 (stereo not drawn)', 'INHIBITION', 24.58),
  ('CN(C)CC1CN(Cc2nc(-c3cccnc3)no2)CCO1 (stereo not drawn)', 'INHIBITION', 52.17),
  ('Cc1ccc(-c2nc(CN3CCc4nn(C)c(=O)cc4C3)co2)cc1', 'INHIBITION', 62.46),
  ('CN1CCC2(CCN(c3ncc(F)cn3)CC2)C1=O', 'INHIBITION', 34.19);

Exercise: Return the recorded INHIBITION value; entry: C=C(C)CN1CCN(Cc2nccn2C)C(C)C1 (stereo not drawn)
Solution: 36.95

Exercise: Give the reported INHIBITION for this molecule. "Cc1ccccc1CN1CCN(Cc2nccn2C)CC1"
Solution: 20.28

Exercise: Name the recorded INHIBITION of the molecule listed here: COc1ccc(F)cc1CN1CCN(Cc2nccn2C)C(C)C1 (stereo not drawn)
Solution: -49.85

Exercise: Kindly indicate its recorded INHIBITION. Item: O=C(c1cncc(NCC2COc3ccccc3C2)n1)N1CCCC1 (stereo not drawn)
Solution: 50.3

Exercise: Please report the measured INHIBITION for COc1ccc(C(C)N2CCN(Cc3nccn3C)CC2)cc1Cl (stereo not drawn)
Solution: 18.31

Exercise: Provide measured INHIBITION value, entry: "O=S1(=O)CCCN1Cc1coc(-c2ccc(C(F)(F)F)cc2)n1"
Solution: 1.8

Exercise: Retrieve INHIBITION measured for O=C(C1CCN(c2cccnn2)C1)N1CCOCC1 (stereo not drawn) and print it.
Solution: 42.48

Exercise: For the molecule "CCOc1ccc(C(F)(F)F)cc1NC(=O)NCc1noc(C)n1" , give its measured INHIBITION value.
Solution: -40.82

Exercise: Tell me its INHIBITION given O=C(c1cncc(NCC2COc3ccccc3C2)n1)N1CCOCC1 (stereo not drawn) as the entry.
Solution: 10.77

---

Known INHIBITION of a selection of molecules
- System: Plasmodium berghei
- PROTOCOL_SUMMARY: Screen against P. berghei liver stage (PbLuc), transformed with Luciferase, at 2uM
- Type: functional, HepG2
- STATED_CONDITIONS: tested at 2 uM
Hit rate of the full screen: of about 68,000 compounds, about 2,700 (4%) showed an effect of 50% or more. This is one part of a sample in which strong results are shown more often than they occur.
Please reply with the bare figure in % and do not write the unit itself.

See these solved cases before continuing.
INSERT INTO assay_data (molecule, observed_result) VALUES
  ('CC(C)(C)c1n[nH]c(C2CN(C(=O)CCc3ccco3)CCO2)n1 (stereo unspecified)', 0.74),
  ('CCCc1n[nH]c(C2CN(CCCS(C)(=O)=O)CCO2)n1 (stereo unspecified)', 2.1),
  ('CC(C)c1n[nH]c(C2CN(CCCS(C)(=O)=O)CCO2)n1 (stereo unspecified)', 69.11);

Exercise: Output measured INHIBITION for this item: CC(C)(C)c1n[nH]c(C2CN(C(=O)CCC3CC3)CCO2)n1 (stereo unspecified)
Solution: 60.31

Exercise: Look up and state reported INHIBITION for CC(C)c1n[nH]c(C2CN(C(=O)CCc3cscn3)CCO2)n1 (stereo unspecified)
Solution: 53.33

Exercise: Tell me INHIBITION reported for CSCC(=O)N1CCOC(c2nc(C(C)(C)C)n[nH]2)C1 (stereo unspecified)
Solution: -17.77

---

- Test system: Plasmodium berghei
- PROTOCOL_SUMMARY: Screen against P. berghei liver stage (PbLuc), transformed with Luciferase, at 2uM
- Assay type: functional, HepG2
- STATED_CONDITIONS: tested at 2 uM
In all, about 68,000 compounds went through this assay and about 2,700 (4%) showed an effect of 50% or more. Many of the other results were omitted from the sample, so strong results are more common in it than they were.
In this section, each of the molecules is paired with its reported INHIBITION.
// units = %; emit number, no label

INSERT INTO results (molecule, observed_result) VALUES
  ('CC(C)c1cc(NC(CO)CO)n2nccc2n1', 20.14),
  ('NC(=O)Nc1cccc(CNC(=O)CCCc2ccccc2)c1', 3.01),
  ('Cc1ccc(-c2nc(CN3CCn4c(nnc4C4CC4)C3)cs2)o1', -110.74),
  ('COc1cccc(CC(=O)N2CC[C@@H](OC)[C@@H]2Cc2cccnc2)c1', 8.18);

Exercise: Give recorded INHIBITION. "CN1CCN(c2cccc(Cl)c2CNCCS(C)(=O)=O)CC1"
Solution: 4.42

Exercise: Answer with reported INHIBITION of "CC(C)c1nn(C)c(N(C)C)c1CNCc1ccnn1C"
Solution: 32.93

Exercise: Kindly indicate its recorded INHIBITION. Item: "CS(=O)(=O)CCNCc1ccc(OCc2ccncc2)cc1"
Solution: -117.21

Exercise: Please indicate INHIBITION recorded for "O=C(NC1CC1)N1C[C@H]2CN(c3ccccc3)C(=O)[C@H]2C1"
Solution: -0.9

Exercise: Consider the molecule "Cc1nnc2n1CCN(Cc1nc(-c3ccoc3)no1)C2" and give its recorded INHIBITION.
Solution: -25.13

Exercise: Supply INHIBITION value. Item: COc1ccccc1C(=O)N1Cc2cc(C)ccc2OCC1CN(C)C (centres undefined)
Solution: -71.28

Reference source: ChEMBL document CHEMBL4513216
